# Tested on: ISC-enriched organoids
# PROCEDURE_DETAILS: Primary screen, 384-well 2.5-D organoid differentiation (ENR+CD, 6 days, Target Selective Inhibitor Library, vs whole-plate median): ATP (CellTiter-Glo 3D, CTG)
# CONDITION_CONTEXT: Dose 0.08 uM; primary screen
Counter-ions that a name gives are not always drawn.
Would you mind telling me the reported Z.CTG (standard z score) of each entry?
Give bare numbers.

Illustrative cases are given below, each with its answer.
{"COMPOUND": "CCc1nc(N)nc(N)c1-c1ccc(Cl)cc1 [Pyrimethamine]", "SYSTEM_TESTED": "ISC-enriched organoids", "MEASURE_NAME": "Z.CTG (standard z score)", "EXPERIMENTAL_RESULT": 0.016}
{"COMPOUND": "CN1CCC(CNc2ccc3ncc(-c4cccc(OC(F)(F)F)c4)n3n2)CC1 [SGI-1776free base]", "SYSTEM_TESTED": "ISC-enriched organoids", "MEASURE_NAME": "Z.CTG (standard z score)", "EXPERIMENTAL_RESULT": 0.407}
{"COMPOUND": "O=C(NCc1cccc(O)c1)Nc1nc(-c2ccncc2)cs1 [RKI-1447]", "SYSTEM_TESTED": "ISC-enriched organoids", "MEASURE_NAME": "Z.CTG (standard z score)", "EXPERIMENTAL_RESULT": "−0.948"}
{"COMPOUND": "CN[C@H]1CC[C@@H](c2ccc(Cl)c(Cl)c2)c2ccccc21 [Sertraline HCl]", "SYSTEM_TESTED": "ISC-enriched organoids", "MEASURE_NAME": "Z.CTG (standard z score)", "EXPERIMENTAL_RESULT": "−0.189"}
{"COMPOUND": "O=[N+]([O-])c1ccc2c(c1)S(=O)(=O)C=C2 [Stattic]", "SYSTEM_TESTED": "ISC-enriched organoids", "MEASURE_NAME": "Z.CTG (standard z score)", "EXPERIMENTAL_RESULT": "−0.191"}
{"COMPOUND": "O=C1NC(=O)/C(=C/c2cccc(C(F)(F)F)c2)S1 [SMI-4a]", "SYSTEM_TESTED": "ISC-enriched organoids", "MEASURE_NAME": "Z.CTG (standard z score)", "EXPERIMENTAL_RESULT": "−0.366"}
{"COMPOUND": "CCC(=O)NCC[C@@H]1CCc2ccc3c(c21)CCO3 [Ramelteon]", "SYSTEM_TESTED": "ISC-enriched organoids", "MEASURE_NAME": "Z.CTG (standard z score)", "EXPERIMENTAL_RESULT": "−0.066"}
{"COMPOUND": "O=S(=O)(c1ccccc1)c1cnc2c(N3CCNCC3)cccc2c1 [SB742457]", "SYSTEM_TESTED": "ISC-enriched organoids", "MEASURE_NAME": "Z.CTG (standard z score)", "EXPERIMENTAL_RESULT": "−0.693"}
{"COMPOUND": "Cc1cc(Nc2ccc(NC(=O)c3ccc(Nc4ccnc5ccccc45)cc3)cc2)nc(N)n1 [SGI-1027]", "SYSTEM_TESTED": "ISC-enriched organoids", "MEASURE_NAME": "Z.CTG (standard z score)", "EXPERIMENTAL_RESULT": 0.583}

Consider the record given below.
Lookup: Can you share its Z.CTG (standard z score)? I mean this compound: Cc1cc(NC(=O)Nc2ccc(N(C)C)cc2)c2cc(F)cc(F)c2n1 [SB408124]
Found: 0.978

----------
Would you mind telling me the reported SSMD.LYZ.S_Rep (strictly standardized mean difference) of each entry?
# System: ISC-enriched organoids
# PROCEDURE_DETAILS: Primary screen, 384-well 2.5-D organoid differentiation (ENR+CD, 6 days): carbachol-induced lysozyme secretion (LYZ.S)
# Type: cell-based, murine
# CONDITION_CONTEXT: dose 10.00 uM (4th of 4 lines per treatment; dose not printed in this part)
# Text: High-throughput screening.
Numbers only.

Illustrative cases are given below, each with its answer.
{"COMPOUND": "N#Cc1c(O)c2c(-c3ccc(-c4ccccc4O)cc3)csc2[nH]c1=O", "EXPERIMENTAL_RESULT": 0.119}
{"COMPOUND": "CC(C)N(CC[C@H](c1ccccc1)c1cc(CO)ccc1O)C(C)C [5-hydroxymethyl Tolterodine (PNU 200577, 5-HMT, 5-HM)]", "EXPERIMENTAL_RESULT": "−0.042"}
{"COMPOUND": "O=C(O)c1ccc(N2C(=O)/C(=C\\c3ccc(-c4ccc([N+](=O)[O-])cc4)o3)C=C2c2ccccc2)cc1", "EXPERIMENTAL_RESULT": 0.321}
{"COMPOUND": "O=C(O)C(Cc1ccccc1[N+](=O)[O-])=NNc1nc(-c2ccc(Cl)c(Cl)c2)cs1 (mixture of isomers)", "EXPERIMENTAL_RESULT": 0.189}

Consider the record given below.
Lookup: Can you share its SSMD.LYZ.S_Rep (strictly standardized mean difference)? I mean this compound: COc1cc2c(cc1O)CC[C@@H]1[C@@H]2CC[C@]2(C)[C@@H](O)CC[C@@H]12
Found: −1.135

----------
# Test system: ISC-enriched organoids
# PROCEDURE_DETAILS: Primary screen, 384-well 2.5-D organoid differentiation (ENR+CD, 6 days): carbachol-induced lysozyme secretion (LYZ.S)
# Type: cell-based, murine
# CONDITION_CONTEXT: primary screen, dose 0.40 uM, ENR+CD 6 days, FC vs plate median
Okay, here is how we bin by Dose.FC.LYZ.S: interval 1 = under -0.04 log 2 fold change, interval 2 = from -0.04 log 2 fold change up to 0.03 log 2 fold change, interval 3 = 0.03 log 2 fold change and over

# example entries with known answers
{"COMPOUND": "CC(C)N(CC[C@H](c1ccccc1)c1cc(CO)ccc1O)C(C)C [5-hydroxymethyl Tolterodine (PNU 200577, 5-HMT, 5-HM)]", "CLASS_ASSIGNMENT": "interval 3"}
{"COMPOUND": "COC1CCN(C(=O)c2cc(Cc3n[nH]c(=O)c4ccccc34)ccc2F)CC1", "CLASS_ASSIGNMENT": "interval 2"}
{"COMPOUND": "COc1cc(OC2CCN(C)CC2)ccc1Nc1ncc2c(n1)n(C1CCCC1)c(=O)n2C", "CLASS_ASSIGNMENT": "interval 1"}
{"COMPOUND": "COc1ccc2c(c1)c(CC(=O)N1CCOCC1)c(C)n2C(=O)c1ccc(Cl)cc1", "CLASS_ASSIGNMENT": "interval 2"}
{"COMPOUND": "CN1CCc2cc3c(cc2[C@H]1[C@@H]1OC(=O)c2c1ccc1c2OCO1)OCO3 [(+)-Bicuculline]", "CLASS_ASSIGNMENT": "interval 3"}
{"COMPOUND": "CC1(C)CCC(c2ccc(Cl)cc2)=C(CN2CCN(c3ccc(C(=O)NS(=O)(=O)c4ccc(N[C@H](CCN5CCOCC5)CSc5ccccc5)c(S(=O)(=O)C(F)(F)F)c4)cc3)CC2)C1", "CLASS_ASSIGNMENT": "interval 2"}
{"COMPOUND": "Cc1cc([C@@H](C)Nc2ccccc2C(=O)O)c2nc(N3CCOCC3)cc(=O)n2c1", "CLASS_ASSIGNMENT": "interval 3"}
{"COMPOUND": "CN(C)C(=O)c1ccc(S(=O)(=O)c2ccc(NC(=O)[C@@](C)(O)C(F)(F)F)c(Cl)c2)cc1", "CLASS_ASSIGNMENT": "interval 2"}
{"COMPOUND": "COc1cc(N2CCC(N)CC2)ccc1Nc1ncc(Cl)c(-c2c[nH]c3ccccc23)n1", "CLASS_ASSIGNMENT": "interval 1"}
{"COMPOUND": "C[C@@H]1COCCN1c1cc(C2(S(C)(=O)=O)CC2)nc(-c2cccc3[nH]ccc23)n1", "CLASS_ASSIGNMENT": "interval 1"}

Lookup: Lab note: sort CC(C)C[C@H](NC(=O)[C@H](Cc1ccccc1)NC(=O)c1cnccn1)B(O)O into the matching Dose.FC.LYZ.S band.
Found: interval 1

Lookup: Lab note: sort CC1(C)CCC(CN2CCN(c3ccc(C(=O)NS(=O)(=O)c4ccc(NCC5CCOCC5)c([N+](=O)[O-])c4)c(Oc4cnc5[nH]ccc5c4)c3)CC2)=C(c2ccc(Cl)cc2)C1 into the matching Dose.FC.LYZ.S band.
Found: interval 3

Lookup: Lab note: sort C=C1C(=O)O[C@H]2[C@H]1CC/C(C)=C/CC[C@@]1(C)O[C@@H]21 [(−)-Parthenolide] into the matching Dose.FC.LYZ.S band.
Found: interval 3

Lookup: Lab note: sort O=C1NC(=O)/C(=C/c2ccc(-c3ccc(F)cc3O)o2)S1 into the matching Dose.FC.LYZ.S band.
Found: interval 2

----------
# System: ISC-enriched organoids
# PROCEDURE_DETAILS: Primary screen, 384-well 2.5-D organoid differentiation (ENR+CD, 6 days, Target Selective Inhibitor Library, vs whole-plate median): ATP (CellTiter-Glo 3D, CTG)
# CONDITION_CONTEXT: Dose 2.00 uM; primary screen, standard z score
MEASURE_NAME: Z.CTG
Answers are plain numbers.

{"RECORD_SMILES": "C[C@@H]1CN(CC(=O)Nc2ccc3c(c2)Cc2cccc(-c4cc(=O)cc(N5CCOCC5)o4)c2S3)C[C@H](C)O1", "Z.CTG": 0.290}
{"RECORD_SMILES": "Cc1cc(Nc2ncc(Cl)c(Nc3ccccc3S(=O)(=O)C(C)C)n2)c(OC(C)C)cc1C1CCNCC1", "Z.CTG": "−0.869"}
{"RECORD_SMILES": "CC(C)(C)c1cc(C(C)(C)C)c(NC(=O)c2c[nH]c3ccccc3c2=O)cc1O", "Z.CTG": "−0.354"}

Consider the record given below.
Lookup: Can you share its Z.CTG? I mean this compound: CC(C)c1onc(-c2c(Cl)cccc2Cl)c1COc1ccc(/C=C/c2cccc(C(=O)O)c2)c(Cl)c1
Found: −0.346
